system: MHV; experiment: microbe, parasite or virus in culture; format: cell-based, mouse hepatitis virus; details: Murine coronavirus, L929, 24 h, read-out: EC50 in cell culture, MHV
OBSERVATION_TYPE: EC50 (nM)
Give bare numbers, in nM.

[
  {
    "MOLECULE": "CCCCC1CCC(OC(=O)N[C@@H](CC(C)C)C(=O)N[C@@H](C[C@@H]2CCNC2=O)C(O)S(=O)(=O)O)CC1 (stereo partly shown) [Compound 7e]",
    "EC50 (nM)": 130
  }
]

Go through the list and state EC50 for each entry.
1. CC(C)C[C@H](NC(=O)OC1CCC(F)(F)CC1)C(=O)N[C@H](C=O)C[C@@H]1CCNC1=O [Compound 6h]
2. CC(C)C[C@H](NC(=O)OC1CCCCC1)C(=O)N[C@H](C=O)C[C@@H]1CCNC1=O [Compound 6a]
3. CC(C)C[C@H](NC(=O)OC1CCCCC1)C(=O)N[C@@H](C[C@@H]1CCNC1=O)C(O)S(=O)(=O)O (stereo partly shown) [Compound 7a]

[80, 120, 80]

* * *

experiment: in vitro
OBSERVATION_TYPE: CC50

Sample answers from the record:
[
  {
    "MOLECULE": "CCCC1CCC(OC(=O)N[C@@H](CC(C)C)C(=O)N[C@H](C=O)C[C@@H]2CCNC2=O)CC1 (stereo partly shown) [Compound 6c]",
    "OBSERVATION_TYPE": "CC50",
    "REPORTED": "> 100 µM"
  },
  {
    "MOLECULE": "CC(C)C[C@H](NC(=O)OC1CCCCC1)C(=O)N[C@@H](C[C@@H]1CCNC1=O)C(O)S(=O)(=O)O (stereo partly shown) [Compound 7a]",
    "OBSERVATION_TYPE": "CC50",
    "REPORTED": "> 100 µM"
  },
  {
    "MOLECULE": "CCCCC1CCC(OC(=O)N[C@@H](CC(C)C)C(=O)N[C@@H](C[C@@H]2CCNC2=O)C(O)S(=O)(=O)O)CC1 (stereo partly shown) [Compound 7e]",
    "OBSERVATION_TYPE": "CC50",
    "REPORTED": "59.1 µM"
  }
]

Specify measured CC50 for CC(C)C[C@H](NC(=O)OC1CCCCC1)C(=O)N[C@H](C=O)C[C@@H]1CCNC1=O [Compound 6a] .
> 100 µM

* * *

The following compounds have recorded pIC50 on 3CLpro of SARS-CoV-2 (Severe acute respiratory syndrome coronavirus 2, UniProt P0DTD1).
Answers are plain numbers, as −log10 of the molar value.

Go through the list and state pIC50 for each entry.
1. CC(C)C[C@H](NC(=O)OC1CCCCC1)C(=O)N[C@@H](C[C@@H]1CCNC1=O)C(O)S(=O)(=O)O (stereo partly shown)
2. CCCC1CCC(OC(=O)N[C@@H](CC(C)C)C(=O)N[C@@H](C[C@@H]2CCNC2=O)C(O)S(=O)(=O)O)CC1 (stereo partly shown)
3. CC(C)C[C@H](NC(=O)OCC1CCC(F)(F)CC1)C(=O)N[C@@H](C[C@@H]1CCNC1=O)C(O)S(=O)(=O)O (stereo partly shown)
4. CC(C)C[C@H](NC(=O)OC1CCC(F)(F)CC1)C(=O)N[C@@H](C[C@@H]1CCNC1=O)C(O)S(=O)(=O)O (stereo partly shown)

1. 6.19
2. 6.64
3. 6.35
4. 6.39
